method summary: Cytotoxicity determination in HepG2.2.15 cells (CCK-8 cell viability)
Format: cell-based
condition parameters: human, 6 days of compound treatment, CCK-8 assay

| molecule | CC50 at 6 days / µM |
| --- | --- |
| COC(=O)C1=C(CN2CCN3C(=O)N(CC(C)(C)C(=O)O)C[C@]3(C)C2)NC(c2nccs2)=N[C@H]1c1ccc(F)cc1Br (relative stereo) [Compound 3A] | 26.7 |
| CCOC(=O)C1=C(CN2CCN3C(=S)N(CC(C)(C)C(=O)O)CC3(C)C2)NC(c2nccs2)=N[C@H]1c1cccc(F)c1C (single isomer, unassigned) [Compound 6A] | 13 |
| CCOC(=O)C1=C(CN2CCN3C(=O)N([C@H]4CC[C@H](C(=O)O)CC4)C[C@]3(C)C2)NC(c2nccs2)=N[C@H]1c1cccc(F)c1C (relative stereo) [Compound 5A] | 9.2 |
| CCOC(=O)C1=C(CN2CCN3C(=O)N(CC(C)(C)C(=O)O)CC3(C)C2)NC(c2nccs2)=N[C@H]1c1cccc(F)c1C (single isomer, unassigned) [Compound 1B] | 24.3 |
| CCOC(=O)C1=C(CN2CCN3C(=O)N(CC(C)(C)C(=O)O)CC3(CC)C2)NC(c2nccs2)=N[C@H]1c1cccc(F)c1C (single isomer, unassigned) [Compound 4B] | 18.5 |
| CCOC(=O)C1=C(CN2CCN3C(=O)N(CC(C)(C)C(=O)O)C[C@]3(C)C2)NC(c2nccs2)=N[C@H]1c1cccc(F)c1Cl (single isomer, unassigned) [Compound 2A] | 19.4 |

* * *

Tested on: HBV
method summary: Anti-HBV activity in HepG2.2.15 cells (HBV DNA in culture medium by qPCR)
Format: cell-based
condition parameters: Hepatitis B virus, 144 h, 6 days of compound treatment
pEC50: −log10 of the molar value.
quantity name: pEC50

| compound | quantity name | value measured |
| --- | --- | --- |
| CCOC(=O)C1=C(CN2CCN3C(=O)N(CC(C)(C)C(=O)O)CC3(CC)C2)NC(c2nccs2)=N[C@H]1c1cccc(F)c1C (single isomer, unassigned) [Compound 4B] | pEC50 | 6.78 |
| CCOC(=O)C1=C(CN2CCN3C(=O)N(CC(C)(C)C(=O)O)CC3(C)C2)NC(c2nccs2)=N[C@H]1c1cccc(F)c1C (single isomer, unassigned) [Compound 1B] | pEC50 | 8.05 |
| COC(=O)C1=C(CN2CCN3C(=O)N(CC(C)(C)C(=O)O)C[C@]3(C)C2)NC(c2nccs2)=N[C@H]1c1ccc(F)cc1Br (relative stereo) [Compound 3A] | pEC50 | 7.42 |

* * *

System: HBV
method summary: Anti-HBV activity in HepG2.2.15 cells (HBV DNA in culture medium by qPCR)
Assay type: cell-based
condition parameters: Hepatitis B virus, 144 h, 6 days of compound treatment
Documented EC50 across a set of compounds

| compound | EC50 |
| --- | --- |
| CCOC(=O)C1=C(CN2CCN3C(=O)N(CC(C)(C)C(=O)O)C[C@]3(C)C2)NC(c2nccs2)=N[C@H]1c1cccc(F)c1Cl (single isomer, unassigned) [Compound 2A] | 16 nM |
| CCOC(=O)C1=C(CN2CCN3C(=O)N([C@H]4CC[C@H](C(=O)O)CC4)C[C@]3(C)C2)NC(c2nccs2)=N[C@H]1c1cccc(F)c1C (relative stereo) [Compound 5A] | 34 nM |
| CCOC(=O)C1=C(CN2CCN3C(=S)N(CC(C)(C)C(=O)O)CC3(C)C2)NC(c2nccs2)=N[C@H]1c1cccc(F)c1C (single isomer, unassigned) [Compound 6A] | 12 nM |
